This collection of values is drawn from the supplement of paper PMC7530171.

Overview of reported intracellular M.tb growth inhibition across a group of molecules:
Test system: THP-1 macrophages infected with Mycobacterium tuberculosis H37Rv
Test: intracellular M.tb growth inhibition relative to DMSO (0) and 4 uM bedaquiline (100); higher = stronger inhibition of intracellular bacterial growth
Conditions: 10 µM; 4 days
quantity: intracellular M.tb growth inhibition

1. Nc1cc(N)c(N)cc1N :: 6.73%
2. COc1cc(Oc2ccnc3cc(OC)c(OC)cc23)ccc1NC(=O)NC(C)c1nccs1 (racemic) :: -40.9%
3. COC(=O)c1ccc2c(c1)NC(=O)/C2=C(\Nc1ccc(N(C)C(=O)CN2CCN(C)CC2)cc1)c1ccccc1 :: -144%
4. CCOc1cc(/C=C(\C#N)C(N)=O)cc(CSc2ccccc2)c1O :: -116%
5. Cn1cc(-c2ccc3nnc(Sc4ccc5ncccc5c4)n3n2)cn1 :: -164%
6. Nc1ccc(-c2cccc3c(=O)cc(N4CCOCC4)oc23)cc1 :: -49%
7. Cc1cccc(-c2[nH]c(C(C)(C)C)nc2-c2ccc3c(c2)OCO3)n1 :: -67.3%
8. O=c1[nH]nc(Sc2ncc([N+](=O)[O-])s2)n1-c1ccc2c(c1)OCCO2 :: -22.3%
9. Cc1cc(C(=O)N2CCN(c3cccc(Cl)c3)CC2)n(-c2ccccc2)n1 :: -17.5%
10. FC(F)(F)c1ccc(/C=C/c2nc(COc3ccc(CCCCn4ccnn4)cc3)co2)cc1 :: -50.5%

====

Tested on: THP-1 macrophages infected with Mycobacterium tuberculosis H37Rv
Test: intracellular M.tb growth inhibition relative to DMSO (0) and 4 uM bedaquiline (100); higher = stronger inhibition of intracellular bacterial growth
Conditions: 10 µM; 4 days
quantity: intracellular M.tb growth inhibition (%)

1) C/C(=N\N=C(N)N)c1ccc(NC(=O)c2cc3cccc([N+](=O)[O-])c3[nH]2)cc1 :: -73
2) c1ccc(-c2[nH]ncc2-c2ccnc3ccccc23)nc1 :: 2.68
3) COc1ccc(-c2ccc3c(N4CCOCC4)nc(N4C[C@@H](C)O[C@@H](C)C4)nc3n2)cc1CO :: -282
4) O=C(NOCC1CC1)c1cc(Br)c(F)c(F)c1Nc1ccc(I)cc1Cl :: 59.8
5) CN(C)c1cc2c(Nc3ccc4c(cnn4Cc4ccccc4)c3)ncnc2cn1 :: 43.5
6) O=[N+]([O-])c1ccc(-c2nc(-c3ccc(F)cc3)c(-c3ccncc3)[nH]2)cc1 :: 36.6
7) COC(=O)Nc1ccc(-c2nc(N3CCOCC3)c3cnn(C4CCN(C(=O)OC)CC4)c3n2)cc1 :: -222
8) c1ccc(-c2n[nH]c3c2oc2ccccc23)cc1 :: 7.69
9) Cc1cc(Nc2cc(N3CCN(C)CC3)nc(Sc3ccc(NC(=O)C4CC4)cc3)n2)n[nH]1 :: -6.87
10) Cc1cc(F)c(Nc2ncnc3cc(OCc4ccccc4)ccc23)cc1O :: 38.8
11) O=c1cc(N2CCOCC2)oc2c(-c3ccccc3)cccc12 :: -0.768
12) N#CC[C@H](C1CCCC1)n1cc(-c2ncnc3[nH]ccc23)cn1 :: -157
13) NC(=O)c1ccc(-c2nc(-c3ccccn3)c(-c3ccc4c(c3)OCO4)[nH]2)cc1 :: 17.9

====

System: THP-1
Test: THP-1 cell loss relative to DMSO control; higher = more host cell loss (toxicity); extreme values may be limits of the assay
Conditions: 10 µM; 4 days; infection: M. tuberculosis H37Rv
Structures can show the parent of a compound that is named as a salt.
Kind request: treat 40% as inclusive, so THP-1 cell loss at 40% or higher is Met, anything lower is Not met.

1. COc1cccc2cc(-c3nc([C@H]4CC[C@H](C(=O)O)CC4)n4ncnc(N)c34)[nH]c12 [OSI-027 hydrochloride] :: Met
2. Oc1c2ccccc2c2c3c(cccc13)N=N2 :: Not met
3. Cn1cc(-c2ccc3nnc(C(F)(F)c4ccc5ncccc5c4)n3n2)cn1 :: Not met
4. CSc1cccc(Nc2ncc3cc(-c4c(Cl)cccc4Cl)c(=O)n(C)c3n2)c1 :: Met
5. CCc1nc(-c2cccc(C)c2)c(-c2ccnc(NC(=O)c3ccccc3)c2)s1 :: Not met
6. CC#CC(=O)Nc1ccc2ncnc(Nc3cccc(Br)c3)c2c1 :: Met
7. COc1cc2ncnc(Nc3ccc(Cl)cc3F)c2cc1OC :: Not met
8. CO[C@H]1C[C@@H]2CC[C@@H](C)[C@@](O)(O2)C(=O)C(=O)N2CCCC[C@H]2C(=O)O[C@H]([C@H](C)C[C@@H]2CC[C@@H](O)[C@H](OC)C2)CC(=O)[C@H](C)/C=C(\C)[C@@H](O)[C@@H](OC)C(=O)[C@H](C)C[C@H](C)/C=C/C=C/C=C/1C :: Not met
9. O=S(=O)(c1cccc2cnccc12)N1CCCNCC1 [Fasudil HCl] :: Not met
10. CS(=O)(=O)CCNCc1ccc(-c2ccc3ncnc(Nc4ccc(OCc5cccc(F)c5)c(Cl)c4)c3c2)o1 [Lapatinib ditosylate] :: Met
11. COc1nccc(-c2c(-c3ccc(F)cc3)ncn2C2CCNCC2)n1 :: Not met
12. O=C1Cc2c([nH]c3ccc([N+](=O)[O-])cc23)-c2ccccc2N1 :: Met
13. CN(C)c1cc2c(Nc3ccc4c(cnn4Cc4ccccc4)c3)ncnc2cn1 :: Met
